test system: LNCaP; assay: Percentage PSA reduction relative to vehicle control following intraperitoneal injection of conjugate dose for 5 consecutive days to nude mice bearing LNCaP tumor xenografts; format: functional, Homo sapiens
Where a SMILES comes first, the peptide text is derived from it. [ ]: non-standard residue; d: D form. The star is where a group is joined. Doxorubicin(3'-N) = COc1cccc2c1C(=O)c1c(O)c3c(c(O)c1C2=O)C[C@@](O)(C(=O)CO)C[C@@H]3O[C@H]1C[C@H](N*)[C@H](O)[C@H](C)O1; X1 = COc1cccc2c1C(=O)c1c(O)c3c(c(O)c1C2=O)C[C@@](O)(C(=O)CO)C[C@@H]3OC1CC(N*)C(O)C(C)O1; Orn = NCCC[C@H](N)C(=O)O
One threshold, 90%, splits the recorded Reduction values: lower ones are YES, equal or higher ones are NO.

COMPOUND	ANSWER LABEL
COc1cccc2c1C(=O)c1c(O)c3c(c(O)c1C2=O)C[C@@](O)(C(=O)CO)C[C@@H]3O[C@H]1C[C@H](N)[C@H](O)[C@H](C)O1	YES
COc1cccc2c1C(=O)c1c(O)c3c(c(O)c1C2=O)C[C@@](O)(C(=O)CO)C[C@@H]3OC1CC(NC(=O)[C@H](N)CC(C)C)C(O)C(C)O1 (stereo partly specified)	YES
COc1cccc2c1C(=O)c1c(O)c3c(c(O)c1C2=O)C[C@@](O)(C(=O)CO)C[C@@H]3OC1CC(NC(=O)[C@H](CC(C)C)NC(=O)[C@H](CO)NC(=O)[C@H](CO)NC(=O)[C@H](CO)NC(=O)[C@H](CCC(N)=O)NC(=O)[C@H](Cc2ccc(O)cc2)NC(=O)[C@H](CCCN)NC(C)=O)C(O)C(C)O1 (stereo partly specified) (Ac-[Orn]YQSSSL-X1)	NO
COc1cccc2c1C(=O)c1c(O)c3c(c(O)c1C2=O)C[C@@](O)(C(=O)CO)C[C@@H]3O[C@H]1C[C@H](NC(=O)[C@H](CC(C)C)NC(=O)[C@H](CO)NC(=O)[C@H](CO)NC(=O)[C@H](CCC(N)=O)NC(=O)[C@H](Cc2ccc(O)cc2)NC(=O)[C@H](CO)NC(=O)[C@H](C)NC(=O)[C@H](CCCCN)NC(=O)[C@H](CC(N)=O)NC(=O)[C@H](C)NC(C)=O)[C@H](O)[C@H](C)O1 (Ac-ANKASYQSSL-{Doxorubicin(3'-N)})	YES
COc1cccc2c1C(=O)c1c(O)c3c(c(O)c1C2=O)C[C@@](O)(C(=O)CO)C[C@@H]3OC1CC(NC(=O)[C@H](CC(C)C)NC(=O)[C@H](CO)NC(=O)[C@@H](CCC(N)=O)NC(=O)[C@H](Cc2ccc(O)cc2)NC(=O)[C@H](CO)NC(=O)[C@H](C)NC(=O)[C@H](CCCN)NC(C)=O)C(O)C(C)O1 (stereo partly specified)	YES
COc1cccc2c1C(=O)c1c(O)c3c(c(O)c1C2=O)C[C@@](O)(C(=O)CO)C[C@@H]3OC1CC(NC(=O)[C@H](CC(C)C)NC(=O)[C@H](CO)NC(=O)[C@@H](CCC(N)=O)NC(=O)[C@@H](NC(=O)[C@H](CO)NC(=O)[C@H](C)NC(=O)C2CC(O)CN2C(=O)CCC(=O)O)C2CCCCC2)C(O)C(C)O1 (stereo partly specified)	NO
